# assay_comment: GFP drop in mixed WT/humanized-ribosome E. coli culture – GFP/RFP fluorescence, OD600, single point, bacterial rRNA inhibitor project, primary screen (AID 720706)
# condition_details: E. coli WT GFP vs humanized-ribosome RFP mutants, 24 h; measured here: OD600 growth, DMSO median 0, no signal -100
Out of some 350,000 compounds screened, about 5,500 (1.6%) were called active. Only a selection was taken, and actives are over-represented in it overall.
attribute_measured: OD600 change (%)
All answers are understood in %, so give the number only.

Here are 8 molecules together with their reported answers.
C[C@@H]1CCCCO[C@@H](CN(C)Cc2ccc(C(=O)Nc3ccccc3N)cc2)[C@H](C)CN([C@H](C)CO)C(=O)c2cc(N(C)C)ccc2O1 = 1.41
COc1ccc(Cl)cc1NC(=O)NCC1CCN(Cc2ccccc2F)CC1 = -28.5
CC=Cc1ccc2n(c1=O)C[C@@H]1[C@@H](CO)[C@H](C(=O)N(C)C)N(CC3CCOCC3)[C@H]21 (mixture of isomers) = -5.67
CCCNC(=O)N1[C@H](CO)[C@@H]2c3ccccc3N(C(=O)C3CC3)C[C@@H]21 = 5.65
COCC#Cc1ccc2c(c1)O[C@H](CN(C)C(=O)CC1CC1)[C@@H](C)CN([C@@H](C)CO)S2(=O)=O = 3.88
CCCNC(=O)N1CC2(C1)[C@H](c1ccccc1)[C@@H](CO)N2C(=O)C1CC1 = 4.92
COc1ccc(Cl)cc1NC(=O)NC(C)C(C)(C)C (stereo not given) = 1.25
COc1ccc(Cl)cc1NC(=O)C(C)N1CCc2ccccc21 (stereo not given) = -24.4

Inquiry: For CN(O)C(=S)c1ccccc1 , what is its reported OD600 change?
Reply text: -75.2

Inquiry: For NN=C(NN=Cc1ccccc1)c1ccccc1 , what is its reported OD600 change?
Reply text: 19.4

###

# assay_comment: GFP drop in mixed WT/humanized-ribosome E. coli culture – GFP/RFP fluorescence, OD600, single point, bacterial rRNA inhibitor project, primary screen (AID 720706)
# condition_details: E. coli WT GFP vs humanized-ribosome RFP mutants, 24 h; measured here: OD600 growth, DMSO median 0, no signal -100
Hit rate of the full screen: of about 350,000 compounds, about 5,500 (1.6%) were called active. Shown is part of a subset that was picked to be rich in actives.
attribute_measured: OD600 change (%)
All answers are understood in %, so give the number only.

Cc1onc(-c2ccccc2Cl)c1C(=O)OCc1nnc(-c2ccccc2)o1 = -40.3
COc1ccc2c3c(n(C)c2c1)[C@H](CO)N(C(C)=O)CC31CN(Cc2ccc(Cl)cc2)C1 = -14.3
COc1ccc2c3c(n(C)c2c1)[C@H](CO)N(C(=O)c1ccc(F)cc1)CC31CCN(C(C)=O)CC1 = 9.11
COc1ccc(C(=O)COC(=O)c2c(C)noc2C)cc1Cl = -1.69

Inquiry: For Cc1onc(-c2ccccc2Cl)c1C(=O)OCC(=O)c1ccccc1 , what is its reported OD600 change?
Reply text: 3.35

###

# assay_comment: GFP drop in mixed WT/humanized-ribosome E. coli culture – GFP/RFP fluorescence, OD600, single point, bacterial rRNA inhibitor project, primary screen (AID 720706)
# condition_details: E. coli WT GFP vs humanized-ribosome RFP mutants, 24 h; measured here: RFP humanized mutant strains, DMSO median 0, no signal -100, concentration not given here
In all, about 350,000 compounds went through this assay and about 5,500 (1.6%) were called active. For the sample, actives were picked, then their nearest neighbours and some compounds at random.
attribute_measured: RFP signal change (%)
All answers are understood in %, so give the number only.

Cc1noc(C)c1S(=O)(=O)Nc1ccc2c(c1)C(=O)N([C@@H](C)CO)C[C@@H](C)[C@@H](CN(C)S(=O)(=O)c1ccccc1)OCCCC[C@H](C)O2 = -2
CCC(=O)N1[C@@H](CO)[C@H](c2ccc(-c3cccc(F)c3)cc2)[C@@H]1CNC(C)=O = 2.12
O=C(Nc1ccc(F)cc1)N1CCCC(c2nc3c(nnn3Cc3ccccc3Cl)c(=O)[nH]2)C1 (stereo not drawn) = 5.16
COCC(=O)N1CCCCN2[C@H](C1)[C@@H](c1ccc(-c3ccccc3)cc1)[C@@H]2CO = 0.005
COC(=O)[C@@H]1[C@@H](CO)[C@@H]2Cn3c(ccc(-c4ccccc4F)c3=O)[C@@H]2N1CC1CCOCC1 = 6.87

Inquiry: For Cc1ccc(Cn2nnc3c(=O)[nH]c(C4CCN(S(=O)(=O)/C=C/c5ccccc5)CC4)nc32)cc1 , what is its reported RFP signal change?
Reply text: 5.14

Inquiry: For O=C(NCc1nnc(SCC(=O)N2CCCCCC2)o1)c1ccc(F)cc1 , what is its reported RFP signal change?
Reply text: 2.77

Inquiry: For S=C(NCc1cccnc1)Nc1ccc(Cl)cc1Cl , what is its reported RFP signal change?
Reply text: -7.63
